- ASSAY_TARGET: N-term biotin J-peptide (Homo sapiens, UniProt P00533, DELINS30-297G)
- ASSAY_COMMENT: Antibody specificity by ELISA
- ASSAY_SETUP: ELISA binding, avidin pre-coated plates
pEC50: −log10 of the molar value.
MEASURED_ATTRIBUTE: pEC50

H1H1912N: human IgG1 Fc anti-EGFRvIII antibody with variable domains 1912; HCVR/LCVR SEQ ID NOs 66/74 (antibody, V domains shown, human IgG1 Fc) VH: EVQLVESGGGLVQPGRSLRLSCAASGFTFDDYAMHWVRQVPGKGLEWVSGISWNSGSIGYADSVKGRFTISRDNAKNSLYLQMNSLRAEDTALYYCAKDIHDYGKDYYYYYGMDVWGQGTTVTVSS VL: EIALTQSPGTLSLSPGERATLSCRASQSVSSTYLAWYQQKPGQAPRLLIYGASSRATGIPDRFSGSGSGTDFTLTISRLEPEDFAVYYCQQYDSSPITFGQGTRLEIK yielded pEC50 of < 8.00

FYI, the data here is from patent US11608380B2.
